Assay: Microsomal stability assay, human liver microsomes;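 further: pooled human liver microsomes at 0.25 mg/mL with 1 µM compound and NADPH at 37 °C, pH 7.4, for 30 min, unchanged parent quantified by LC-MS/MS against the 0 min sample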
Conditions: human liver microsomal data
Parameter class (string): assigned from measured HLM. Ranges: bottom end: < 40 µL/min/mg; midrange: ≥ 40 µL/min/mg and < 200 µL/min/mg; top end: ≥ 200 µL/min/mg

[ask] // return the class label for CC(C)(C)Cc1cnc2c(c1)[C@@H](NC[C@@H](O)[C@H](Cc1ccc3c(c1)OCO3)NC(=O)C1CCS(=O)(=O)C1)CC1(CCC1)O2 (stereo partly drawn)
[reply] bottom end

[ask] Class for "COCC(=O)N[C@@H](Cc1cccc(F)c1)[C@H](O)CN[C@H]1CC2(CCC2)Oc2c1cc(CC(C)C)cc2-n1ccnc1" ?
[reply] bottom end

[ask] Band for the recorded HLM of "CC(C)(C)Cc1cnc2c(c1)[C@@H](NC[C@@H](O)[C@H](Cc1cc(F)cc(-c3nccs3)c1)NC(=O)C1(C)CC1)CC1(CCC1)O2" ?
[reply] midrange

[ask] Which HLM category applies to "CC(C)(C)Cc1cnc2c(c1)[C@@H](NC[C@@H](O)[C@H](Cc1cc(F)cc(-c3nccs3)c1)NC(=O)[C@@H]1CCCO1)CC1(CCC1)O2" here?
[reply] midrange

[ask] State the class of the compound shown: "COCC(=O)N[C@@H](Cc1ccc(F)cc1)[C@H](O)CN[C@H]1CC2(CCC2)Oc2c1cc(CC(C)(C)C)nc2-c1ccncc1"
[reply] bottom end

[ask] Please let me know in which category the item "CO[C@H](C)C(=O)N[C@@H](Cc1cc(F)cc(F)c1)[C@H](O)CN[C@H]1CC2(CCC2)Oc2c(-c3nccs3)cc(CC(C)C)cc21" belongs.
[reply] top end

[ask] Record "COCC(=O)N[C@@H](Cc1cc(F)cc(F)c1)[C@H](O)CN[C@H]1CC2(CCC2)Oc2c(-c3ccncc3)cc(CC(C)(C)C)cc21" — which class?
[reply] bottom end

[ask] Which category fits this record: "COCC(=O)N[C@@H](Cc1cccc(F)c1)[C@H](O)CN[C@H]1CC2(CCC2)Oc2c1cc(Cl)cc2-n1ccnc1"
[reply] midrange

[ask] Form field 'band' for "CC(=O)N[C@@H](Cc1ccc(F)cc1)[C@H](O)CN[C@H]1CC2(CCC2)Oc2c1cc(CC(C)(C)C)nc2NC1CCC1"
[reply] midrange

[ask] Lab note: which band did "CO[C@H](C)C(=O)N[C@@H](Cc1cccc(C#N)c1)[C@H](O)CN[C@H]1CC2(CC(F)(F)C2)Oc2ncc(CC(C)(C)C)cc21" land in?
[reply] top end

[ask] Band of "CO[C@H](C)C(=O)N[C@@H](Cc1ccccc1)[C@H](O)CN[C@H]1CC2(CCC2)Oc2c(Br)cc(CC(C)C)cc21" ?
[reply] top end

[ask] Which category does the recorded HLM put "CO[C@H](C)C(=O)N[C@@H](Cc1ccccc1)[C@H](O)CN[C@H]1CC2(CCC2)Oc2c1cc(CC(C)C)cc2-n1ccnc1" in?
[reply] midrange

----------
Target: UniProt:P56817
Assay: In vitro enzymatic BACE FRET (fluorescence resonance energy transfer) assay
Format: biochemical
Conditions: BACE enzyme assay IC50; read-out: BACE1 FRET assay
MEASURE: pIC50
In simple prose, pIC50 is minus the logarithm base ten of a concentration in moles per litre.

[ask] Quick one: pIC50 of "CC(=O)N[C@@H](Cc1ccc(F)c(-c2cscn2)c1)[C@H](O)CN[C@H]1CC2(CCC2)Oc2ccc(CC(C)(C)C)cc21" ?
[reply] 8.30

[ask] Could you share which pIC50 value was measured for "COCC(=O)N[C@@H](Cc1ccc(F)c(-c2nccs2)c1)[C@H](O)CN[C@H]1CC2(CCC2)Oc2ncc(CC(C)(C)F)cc21" ?
[reply] 7.80

[ask] What value of pIC50 has been recorded for this entry: "CN1CCO[C@@H](C(=O)N[C@@H](Cc2ccc(F)cc2)[C@H](O)CN[C@H]2CC3(CCC3)Oc3ncc(CC(C)(C)C)cc32)C1"
[reply] 7.19

----------
Target: CYP2D6 (Homo sapiens)
Sequence (P10635 whole entry): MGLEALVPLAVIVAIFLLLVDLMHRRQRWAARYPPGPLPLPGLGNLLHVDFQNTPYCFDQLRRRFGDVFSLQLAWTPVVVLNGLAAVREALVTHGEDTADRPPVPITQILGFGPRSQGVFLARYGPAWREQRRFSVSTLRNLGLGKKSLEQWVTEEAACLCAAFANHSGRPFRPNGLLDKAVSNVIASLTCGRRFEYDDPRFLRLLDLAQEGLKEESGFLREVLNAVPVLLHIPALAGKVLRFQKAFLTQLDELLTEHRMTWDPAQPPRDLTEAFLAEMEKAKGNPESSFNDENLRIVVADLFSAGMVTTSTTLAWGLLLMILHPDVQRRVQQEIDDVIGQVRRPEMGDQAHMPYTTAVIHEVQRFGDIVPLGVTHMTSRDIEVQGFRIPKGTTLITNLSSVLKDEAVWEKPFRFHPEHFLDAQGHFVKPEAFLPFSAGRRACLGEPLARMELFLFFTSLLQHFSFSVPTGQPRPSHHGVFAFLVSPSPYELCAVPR
Test: CYP2D6 inhibition assay (bufuralol, pooled human liver microsomes)
Details: read-out: 2D6 IC50; CYP2D6 inhibition
So I've got a bunch of compounds here, and I need their pIC50 values.
pIC50 field: float, defined as -log10 of concentration (mol/L).

[ask] Form field: reported pIC50 of CC(=O)N[C@@H](Cc1cc(F)cc(-c2nccs2)c1)[C@H](O)CN[C@H]1CC2(CCC2)Oc2ncc(CC(C)(C)C)cc21 [Example 435]
[reply] 6.52

[ask] What measured pIC50 goes with CC(=O)N[C@@H](Cc1ccc(F)c(-c2cscn2)c1)[C@H](O)CN[C@H]1CC2(CCC2)Oc2ccc(CC(C)(C)C)cc21 [Example 436] ?
[reply] 5.66

----------
Biological target: Beta Secretase enzyme (BACE) (Homo sapiens)
Sequence (P56817 46-501): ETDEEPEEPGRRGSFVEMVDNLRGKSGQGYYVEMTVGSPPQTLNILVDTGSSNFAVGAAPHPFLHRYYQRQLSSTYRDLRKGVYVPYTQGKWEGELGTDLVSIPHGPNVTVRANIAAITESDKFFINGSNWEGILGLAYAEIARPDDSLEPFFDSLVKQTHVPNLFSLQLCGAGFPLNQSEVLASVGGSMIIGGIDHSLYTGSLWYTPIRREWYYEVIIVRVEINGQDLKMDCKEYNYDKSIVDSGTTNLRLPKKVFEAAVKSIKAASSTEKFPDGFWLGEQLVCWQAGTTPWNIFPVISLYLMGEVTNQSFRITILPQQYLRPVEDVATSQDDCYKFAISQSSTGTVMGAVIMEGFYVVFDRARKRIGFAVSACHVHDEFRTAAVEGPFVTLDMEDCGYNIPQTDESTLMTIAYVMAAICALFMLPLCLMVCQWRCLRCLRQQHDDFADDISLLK
Test: In vitro enzymatic BACE FRET (fluorescence resonance energy transfer) assay;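 further: fluorescence read after 1 h with 50 nM quenched peptide substrate spanning the BACE cleavage site, in pH 4.2 acetate buffer containing 10% DMSO and nonionic detergent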
Format: biochemical
Settings: BACE enzyme FRET assay; read-out: BACE1 FRET assay (IC50)
Record form. Attribute: IC50. Fill in for each entry.
Field: numeric (µM). Do not append units.

[ask] Find the measured IC50: item "COCC(=O)N[C@@H](Cc1cc(Br)c2c(c1)OCO2)[C@H](O)CN[C@H]1CC2(CCC2)Oc2ncc(CC(C)(C)F)cc21" , target or system Beta Secretase enzyme (BACE) (Homo sapiens).
[reply] 0.423

[ask] Record lookup: for Beta Secretase enzyme (BACE) (Homo sapiens), what IC50 belongs to CC(=O)NC(Cc1ccc(F)cc1)C(O)CNC1CC2(CC(C#N)C2)Oc2ncc(CC(C)(C)C)cc21 (centres unmarked) [compound 260] ?
[reply] 0.0987

[ask] API: value(readout= IC50, system= Beta Secretase enzyme (BACE) (Homo sapiens), query= "COCC(=O)N[C@@H](Cc1cccc(F)c1)[C@H](O)CN[C@H]1CC2(CCC2)Oc2c(F)cc(CC(C)(C)C)cc21" )
[reply] 0.0137

[ask] Lab request: please report IC50 under test system Beta Secretase enzyme (BACE) (Homo sapiens) for "COCC(=O)N[C@@H](Cc1cc(F)cc(F)c1)[C@H](O)CN[C@H]1CC2(CCC2)Oc2ncc(CC(C)(C)F)cc21"
[reply] 0.00332

[ask] Please state recorded IC50 (tested on Beta Secretase enzyme (BACE) (Homo sapiens)) of "COCC(=O)N[C@@H](Cc1cc(Cl)c2c(c1)OCO2)[C@H](O)CN[C@H]1CC2(CCC2)Oc2ncc(CC(C)(C)C)cc21"
[reply] 0.00641

[ask] Item: "CC(=O)N[C@@H](Cc1cccc(F)c1)[C@H](O)CN[C@H]1CC2(CCC2)Oc2ncc(CC(C)(F)F)cc21" Test system: Beta Secretase enzyme (BACE) (Homo sapiens) Read-out: IC50 Value: ?
[reply] 0.00613

[ask] Can you look up IC50 on Beta Secretase enzyme (BACE) (Homo sapiens) for "COCC(=O)N[C@@H](Cc1cccc(F)c1)[C@H](O)CN[C@H]1CC2(CCC2)Oc2cnc(CC(C)(C)F)cc21" ?
[reply] 0.0236

[ask] Hello, I am looking for reported IC50 with Beta Secretase enzyme (BACE) (Homo sapiens) for COC(=O)C1CC2(C1)CC(NCC(O)C(Cc1ccc(F)cc1)NC(C)=O)c1cc(CC(C)(C)C)cnc1O2 (centres unmarked) [compound 258] . Could you help?
[reply] 0.0389

[ask] State its IC50 on Beta Secretase enzyme (BACE) (Homo sapiens): "CO[C@H](C)C(=O)N[C@@H](Cc1cccc(F)c1)[C@H](O)CN[C@H]1CC2(CCC2)Oc2c(F)cc(CC(C)(C)C)cc21"
[reply] 0.00445

[ask] Lookup: IC50 / Beta Secretase enzyme (BACE) (Homo sapiens) / "CC(=O)N[C@@H](Cc1ccccc1)[C@H](O)CN[C@H]1CC2(CCC2)Oc2ncc(CC3CC3)cc21"
[reply] 0.0342

[ask] Enter reported IC50 observed with Beta Secretase enzyme (BACE) (Homo sapiens) for "CC(=O)C(=O)N[C@@H](Cc1ccc2c(c1)OCO2)[C@H](O)CN[C@H]1CC2(CCC2)Oc2ncc(CC(C)(C)C)cc21"
[reply] 0.0313

[ask] Reported IC50 for Beta Secretase enzyme (BACE) (Homo sapiens), given COCC(=O)NC(Cc1cccc(F)c1)C(O)CNC1CC2(CC(O)C2)Oc2cnccc21 (centres unmarked) [compound 235] ?
[reply] 0.581

[ask] So what IC50 did "CC(=O)N[C@@H](Cc1ccc2c(c1)OCO2)[C@H](O)CN[C@H]1CC2(CCC2)Oc2ncc(CC(C)(F)F)cc21" get with Beta Secretase enzyme (BACE) (Homo sapiens)?
[reply] 0.082

[ask] Test system Beta Secretase enzyme (BACE) (Homo sapiens); read-out IC50; what value for "CC(=O)N[C@@H](Cc1ccc2c(c1)OCO2)[C@H](O)CN[C@H]1CC2(CCC2)Oc2cnc(C(F)(F)F)cc21" ?
[reply] 9.6

----------
Molecular target: CYP3A4 (CYP3A) (Homo sapiens, UniProt P08684);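 further: inhibition of CYP3A-mediated 1-hydroxymidazolam formation after 10 min incubation with NADPH, quantified by HPLC MS relative to metabolite produced without test compound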
Sequence (P08684 2-503): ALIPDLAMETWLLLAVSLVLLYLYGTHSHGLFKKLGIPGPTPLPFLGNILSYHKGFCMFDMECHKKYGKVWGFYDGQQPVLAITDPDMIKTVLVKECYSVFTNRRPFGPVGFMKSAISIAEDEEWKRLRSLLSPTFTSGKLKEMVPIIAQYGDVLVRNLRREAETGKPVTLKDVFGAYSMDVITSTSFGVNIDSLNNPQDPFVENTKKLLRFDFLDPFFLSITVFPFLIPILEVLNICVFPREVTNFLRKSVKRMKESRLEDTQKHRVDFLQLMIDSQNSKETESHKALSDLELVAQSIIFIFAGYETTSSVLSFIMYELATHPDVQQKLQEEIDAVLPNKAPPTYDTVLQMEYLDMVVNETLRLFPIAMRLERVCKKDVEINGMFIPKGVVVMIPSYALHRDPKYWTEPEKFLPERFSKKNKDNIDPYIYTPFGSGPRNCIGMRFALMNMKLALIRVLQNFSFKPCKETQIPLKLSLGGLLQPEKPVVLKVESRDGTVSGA
Assay: in vitro
Conditions: microsomes, pH 7.4
MEASURE: IC50 (nM)
Numbers only; they are read as nM.

[ask] Recorded IC50 of "CO[C@H](C)C(=O)N[C@@H](Cc1cccc(C#N)c1)[C@H](O)CN[C@H]1CC2(CC(F)(F)C2)Oc2ncc(CC(C)(C)C)cc21" , please.
[reply] 1100

[ask] // lookup IC50 for "COCC(=O)N[C@@H](Cc1cccc(F)c1)[C@H](O)CN[C@H]1CC2(CCC2)Oc2c1cc(CC(C)(C)C)cc2-n1ccnc1"
[reply] 100

[ask] Would you kindly share the measured IC50 for "COCC(=O)N[C@@H](Cc1cc(F)cc(F)c1)[C@H](O)CN[C@H]1CC2(CCC2)Oc2c1cc(CC(C)(C)C)nc2Nc1ccccc1" ?
[reply] 6400

[ask] Which value of IC50 has been reported for "COCC(=O)N[C@@H](Cc1cccc(F)c1)[C@H](O)CN[C@H]1CC2(CCC2)Oc2c1cc(CC(C)(C)C)nc2-c1ccncc1" in the records?
[reply] 200

[ask] Tell me the measured IC50 of "CO[C@H](C)C(=O)N[C@@H](Cc1cccc(F)c1)[C@H](O)CN[C@H]1CC2(CCC2)Oc2c1cc(CC(C)(C)C)cc2-n1ccnc1" , please.
[reply] 100

[ask] Field request: IC50 | item: "CC(=O)N[C@@H](Cc1cc(F)cc(-c2cscn2)c1)[C@H](O)CN[C@H]1CC2(CCC2)Oc2ncc(CC(C)(C)C)cc21"
[reply] 400

[ask] Which value of IC50 has been reported for "CC(C)Cc1cnc2c(c1)[C@@H](NC[C@@H](O)[C@H](Cc1ccc3c(c1)OCO3)NC(=O)[C@H](C)F)CC1(CCC1)O2" in the records?
[reply] 200

[ask] What value of measured IC50 is listed for "CO[C@H](C)C(=O)N[C@@H](Cc1cc(Cl)ccc1F)[C@H](O)CN[C@H]1CC2(CCC2)Oc2ncc(CC(C)(C)C)cc21" ?
[reply] 100

[ask] Fill in: IC50 of "COCC(=O)N[C@@H](Cc1cccc(F)c1)[C@H](O)CN[C@H]1CC2(CCC2)Oc2c(-c3ccncc3F)cc(CC(C)(C)C)cc21" is ___
[reply] 100

[ask] Quick one: IC50 of "COCC(=O)N[C@@H](Cc1cccc(F)c1)[C@H](O)CN[C@H]1CC2(CCC2)Oc2c1cc([C@H](n1ccnc1)C(C)(C)C)cc2-n1ccnc1" ?
[reply] 100
